Structures can show the parent of a compound that is named as a salt.
ENDPOINT LABEL: melting point (°C)

Q. Reported melting point, compound Cc1cc(OCCCS(C)(=O)=O)cc(C)c1-c1cccc2c1OC[C@H]2Nc1ccc2c(c1)OC[C@H]2CC(=O)O : ____
A. 169

Q. Next compound up: CCCN(c1cc(C)ccn1)c1cccc2c1OC[C@H]2Nc1ccc2c(c1)OC[C@H]2CC(=O)O
A. 146

Q. Please give the result for Cc1cc(OC2CCS(=O)(=O)CC2)cc(C)c1-c1cccc2c1OC[C@H]2Nc1ccc2c(c1)OC[C@H]2CC(=O)O too.
A. 176

Q. Repeat for the following compound: Cc1nc(N2CCOCC2)nc(C)c1-c1cccc2c1OC[C@H]2Nc1ccc2c(c1)OC[C@H]2CC(=O)O
A. 168

Q. Follow-up item: Cc1cc(OC[C@@H]2CCC(=O)N2)cc(C)c1-c1cccc2c1OC[C@H]2Nc1ccc2c(c1)OC[C@H]2CC(=O)O
A. 161

Q. Check Cc1nc(N2CCCC2)nc(C)c1-c1cccc2c1OC[C@H]2Nc1ccc2c(c1)OC[C@H]2CC(=O)O too.
A. 169

Q. Same thing, different compound: Cc1nc(N2CCOCC2)nc(C)c1-c1cccc(CNc2ccc3c(c2)OC[C@H]3CC(=O)O)c1C (as salt: salt)
A. 154
